Tested on: SF-268
Assay: Growth inhibition of human SF268 cells after 48 hrs by SRB assay
Assay type: functional
Settings: SF-268, 48 h
reportedEndpoint: GI50
Please state the number and follow it with the unit.

NC(=O)c1cc(I)ccc1NC(=O)/C=C/c1ccccc1 ... 2.31 µM
NC(=O)c1cc(Br)ccc1NC(=O)/C=C/c1ccccc1 ... 1.83 µM
NC(=O)c1cc(I)ccc1NC(=O)/C=C/c1ccccc1Cl ... 0.778 µM
Cc1ccc(NC(=O)/C=C/c2ccccc2)c(C(N)=O)c1 ... 10.9 µM

Could you now look at the following molecule, please?
GI50 reading for "NC(=O)c1cc(Cl)ccc1NC(=O)/C=C/c1ccccc1" : 2.9 µM
